Task for the reader: assign each of the following compounds its reported Log10LC50.
Tested on: MDA-MB-231/ATCC
Test: NCI screening panel, MDA-MB-231/ATCC (Breast Cancer)
Format: cell-based, human
Keep it simple and answer with nothing but the number.

Given the compound CC(C)C[C@H](NC(=O)[C@H](COC(F)F)NC(=O)CN1CCOCC1)C(=O)N[C@@H](Cc1ccccc1)C(=O)N[C@@H](CC(C)C)C(=O)[C@@]1(C)CO1 [Example 2] , what is its reported Log10LC50? −4.37

Given the compound CC(C)C[C@H](NC(=O)[C@H](COC(F)F)NC(=O)[C@H](COC(F)F)NC(=O)[C@H](CCc1ccccc1)NC(=O)CN1CCOCC1)C(=O)[C@@]1(C)CO1 [Example 7] , what is its reported Log10LC50? −4.92

* * *

Task for the reader: assign each of the following molecules its reported Log10TGI50.
System: M14
Experiment: NCI screening panel, M14 (Melanoma)
Assay type: cell-based, human
Keep it simple and answer with nothing but the number.

Given the molecule `CC(C)C[C@H](NC(=O)[C@H](COC(F)F)NC(=O)CN1CCOCC1)C(=O)N[C@@H](Cc1ccccc1)C(=O)N[C@@H](CC(C)C)C(=O)[C@@]1(C)CO1` , what is its reported Log10TGI50? −6.26

Given the molecule `CC(C)C[C@H](NC(=O)[C@H](Cc1ccccc1)NC(=O)[C@H](COC(F)F)NC(=O)[C@H](COC(F)F)NC(=O)CN1CCOCC1)C(=O)[C@@]1(C)CO1` , what is its reported Log10TGI50? −5.91

Given the molecule `CC(C)C[C@H](NC(=O)[C@H](COC(F)F)NC(=O)[C@H](COC(F)F)NC(=O)[C@H](CCc1ccccc1)NC(=O)CN1CCOCC1)C(=O)[C@@]1(C)CO1` , what is its reported Log10TGI50? −5.70

Given the molecule `CC(C)C[C@H](NC(=O)[C@H](COC(F)F)NC(=O)CN1CCOCC1)C(=O)N[C@@H](Cc1ccccc1)C(=O)N[C@@H](Cc1ccccc1)C(=O)[C@@]1(C)CO1` , what is its reported Log10TGI50? −6.54

Given the molecule `CC(C)C[C@H](NC(=O)[C@H](COC(F)F)NC(=O)CN1CCOCC1)C(=O)N[C@@H](COC(F)F)C(=O)N[C@@H](CC(C)C)C(=O)[C@@]1(C)CO1` , what is its reported Log10TGI50? −6.31

Given the molecule `CC(C)C[C@H](NC(=O)[C@H](COC(F)F)NC(=O)CN1CCOCC1)C(=O)N[C@@H](COC(F)F)C(=O)N[C@@H](Cc1ccccc1)C(=O)[C@@]1(C)CO1` , what is its reported Log10TGI50? −5.66

Given the molecule `CC(C)C[C@H](NC(=O)[C@H](COC(F)F)NC(=O)[C@H](COC(F)F)NC(=O)[C@H](COC(F)F)NC(=O)CN1CCOCC1)C(=O)[C@@]1(C)CO1` , what is its reported Log10TGI50? −5.41

* * *

Task for the reader: assign each of the following molecules its reported Log10LC50.
Tested on: HS 578T
Experiment: NCI screening panel, HS 578T (Breast Cancer)
Format: cell-based, human

Given the molecule `CC(C)C[C@H](NC(=O)[C@H](COC(F)F)NC(=O)CN1CCOCC1)C(=O)N[C@@H](COC(F)F)C(=O)N[C@@H](CC(C)C)C(=O)[C@@]1(C)CO1` , what is its reported Log10LC50? >−4.00

Given the molecule `CC(C)C[C@H](NC(=O)[C@H](Cc1ccccc1)NC(=O)[C@H](COC(F)F)NC(=O)[C@H](COC(F)F)NC(=O)CN1CCOCC1)C(=O)[C@@]1(C)CO1` , what is its reported Log10LC50? >−4.00

Given the molecule `CC(C)C[C@H](NC(=O)[C@H](COC(F)F)NC(=O)[C@H](COC(F)F)NC(=O)[C@H](CCc1ccccc1)NC(=O)CN1CCOCC1)C(=O)[C@@]1(C)CO1` , what is its reported Log10LC50? >−4.00

* * *

Test system: SN12C
Assay: NCI screening panel, SN12C (Renal Cancer)
Assay type: cell-based, human
quantity.kind: Log10GI50
Keep it simple and answer with nothing but the number.

Find Log10GI50 (SN12C) for the entry `CC(C)C[C@H](NC(=O)[C@H](COC(F)F)NC(=O)CN1CCOCC1)C(=O)N[C@@H](COC(F)F)C(=O)N[C@@H](Cc1ccccc1)C(=O)[C@@]1(C)CO1` −7.20

Find Log10GI50 (SN12C) for the entry `CC(C)C[C@H](NC(=O)[C@H](COC(F)F)NC(=O)CN1CCOCC1)C(=O)N[C@@H](Cc1ccccc1)C(=O)N[C@@H](CC(C)C)C(=O)[C@@]1(C)CO1` −7.40

Find Log10GI50 (SN12C) for the entry `CC(C)C[C@H](NC(=O)[C@H](COC(F)F)NC(=O)CN1CCOCC1)C(=O)N[C@@H](COC(F)F)C(=O)N[C@@H](CC(C)C)C(=O)[C@@]1(C)CO1` −7.31

Find Log10GI50 (SN12C) for the entry `CC(C)C[C@H](NC(=O)[C@H](Cc1ccccc1)NC(=O)[C@H](COC(F)F)NC(=O)[C@H](COC(F)F)NC(=O)CN1CCOCC1)C(=O)[C@@]1(C)CO1` −7.20

Find Log10GI50 (SN12C) for the entry `CC(C)C[C@H](NC(=O)[C@H](COC(F)F)NC(=O)[C@H](COC(F)F)NC(=O)[C@H](CCc1ccccc1)NC(=O)CN1CCOCC1)C(=O)[C@@]1(C)CO1` −7.46

Find Log10GI50 (SN12C) for the entry `CC(C)C[C@H](NC(=O)[C@H](COC(F)F)NC(=O)[C@H](COC(F)F)NC(=O)[C@H](COC(F)F)NC(=O)CN1CCOCC1)C(=O)[C@@]1(C)CO1` −6.71

Find Log10GI50 (SN12C) for the entry `CC(C)C[C@H](NC(=O)[C@H](COC(F)F)NC(=O)CN1CCOCC1)C(=O)N[C@@H](Cc1ccccc1)C(=O)N[C@@H](Cc1ccccc1)C(=O)[C@@]1(C)CO1` −7.68

* * *

Task for the reader: assign each of the following compounds its reported Log10GI50.
System: MDA-MB-231/ATCC
Assay: NCI screening panel, MDA-MB-231/ATCC (Breast Cancer)
Type: cell-based, human
Keep it simple and answer with nothing but the number.

Given the compound `CC(C)C[C@H](NC(=O)[C@H](COC(F)F)NC(=O)CN1CCOCC1)C(=O)N[C@@H](COC(F)F)C(=O)N[C@@H](CC(C)C)C(=O)[C@@]1(C)CO1` , what is its reported Log10GI50? −7.52

Given the compound `CC(C)C[C@H](NC(=O)[C@H](COC(F)F)NC(=O)[C@H](COC(F)F)NC(=O)[C@H](CCc1ccccc1)NC(=O)CN1CCOCC1)C(=O)[C@@]1(C)CO1` , what is its reported Log10GI50? −7.64

Given the compound `CC(C)C[C@H](NC(=O)[C@H](COC(F)F)NC(=O)CN1CCOCC1)C(=O)N[C@@H](COC(F)F)C(=O)N[C@@H](Cc1ccccc1)C(=O)[C@@]1(C)CO1` , what is its reported Log10GI50? −7.45

Given the compound `CC(C)C[C@H](NC(=O)[C@H](Cc1ccccc1)NC(=O)[C@H](COC(F)F)NC(=O)[C@H](COC(F)F)NC(=O)CN1CCOCC1)C(=O)[C@@]1(C)CO1` , what is its reported Log10GI50? −7.56

Given the compound `CC(C)C[C@H](NC(=O)[C@H](COC(F)F)NC(=O)CN1CCOCC1)C(=O)N[C@@H](Cc1ccccc1)C(=O)N[C@@H](CC(C)C)C(=O)[C@@]1(C)CO1` , what is its reported Log10GI50? −7.63

Given the compound `CC(C)C[C@H](NC(=O)[C@H](COC(F)F)NC(=O)[C@H](COC(F)F)NC(=O)[C@H](COC(F)F)NC(=O)CN1CCOCC1)C(=O)[C@@]1(C)CO1` , what is its reported Log10GI50? −6.87

* * *

Tested on: HL-60(TB)
Test: NCI screening panel, HL-60(TB) (Leukemia)
Type: cell-based, human
quantity.kind: Log10TGI50

Given the compound `CC(C)C[C@H](NC(=O)[C@H](COC(F)F)NC(=O)[C@H](COC(F)F)NC(=O)[C@H](COC(F)F)NC(=O)CN1CCOCC1)C(=O)[C@@]1(C)CO1` , what is its reported Log10TGI50? −5.87

Given the compound `CC(C)C[C@H](NC(=O)[C@H](COC(F)F)NC(=O)CN1CCOCC1)C(=O)N[C@@H](COC(F)F)C(=O)N[C@@H](CC(C)C)C(=O)[C@@]1(C)CO1` , what is its reported Log10TGI50? −6.30

Given the compound `CC(C)C[C@H](NC(=O)[C@H](COC(F)F)NC(=O)CN1CCOCC1)C(=O)N[C@@H](Cc1ccccc1)C(=O)N[C@@H](CC(C)C)C(=O)[C@@]1(C)CO1` , what is its reported Log10TGI50? −6.11

Given the compound `CC(C)C[C@H](NC(=O)[C@H](COC(F)F)NC(=O)[C@H](COC(F)F)NC(=O)[C@H](CCc1ccccc1)NC(=O)CN1CCOCC1)C(=O)[C@@]1(C)CO1` , what is its reported Log10TGI50? −6.48
